Value source: patent US20260049134A1

Field: antibody-bound positive cells (%). Provide a value for each of the binders that follow.
- target-entity: T1, PTPRG, endogenous in H929 multiple myeloma cells (human, UniProt P23470 20-1445)
- T1 construct: Native protein on H929 cells (flow cytometry, siRNA knockdown) and in H929 lysates (IP/MS); also called phosphatase receptor type γ
- T1 sequence (P23470 20-1445 limits assumed): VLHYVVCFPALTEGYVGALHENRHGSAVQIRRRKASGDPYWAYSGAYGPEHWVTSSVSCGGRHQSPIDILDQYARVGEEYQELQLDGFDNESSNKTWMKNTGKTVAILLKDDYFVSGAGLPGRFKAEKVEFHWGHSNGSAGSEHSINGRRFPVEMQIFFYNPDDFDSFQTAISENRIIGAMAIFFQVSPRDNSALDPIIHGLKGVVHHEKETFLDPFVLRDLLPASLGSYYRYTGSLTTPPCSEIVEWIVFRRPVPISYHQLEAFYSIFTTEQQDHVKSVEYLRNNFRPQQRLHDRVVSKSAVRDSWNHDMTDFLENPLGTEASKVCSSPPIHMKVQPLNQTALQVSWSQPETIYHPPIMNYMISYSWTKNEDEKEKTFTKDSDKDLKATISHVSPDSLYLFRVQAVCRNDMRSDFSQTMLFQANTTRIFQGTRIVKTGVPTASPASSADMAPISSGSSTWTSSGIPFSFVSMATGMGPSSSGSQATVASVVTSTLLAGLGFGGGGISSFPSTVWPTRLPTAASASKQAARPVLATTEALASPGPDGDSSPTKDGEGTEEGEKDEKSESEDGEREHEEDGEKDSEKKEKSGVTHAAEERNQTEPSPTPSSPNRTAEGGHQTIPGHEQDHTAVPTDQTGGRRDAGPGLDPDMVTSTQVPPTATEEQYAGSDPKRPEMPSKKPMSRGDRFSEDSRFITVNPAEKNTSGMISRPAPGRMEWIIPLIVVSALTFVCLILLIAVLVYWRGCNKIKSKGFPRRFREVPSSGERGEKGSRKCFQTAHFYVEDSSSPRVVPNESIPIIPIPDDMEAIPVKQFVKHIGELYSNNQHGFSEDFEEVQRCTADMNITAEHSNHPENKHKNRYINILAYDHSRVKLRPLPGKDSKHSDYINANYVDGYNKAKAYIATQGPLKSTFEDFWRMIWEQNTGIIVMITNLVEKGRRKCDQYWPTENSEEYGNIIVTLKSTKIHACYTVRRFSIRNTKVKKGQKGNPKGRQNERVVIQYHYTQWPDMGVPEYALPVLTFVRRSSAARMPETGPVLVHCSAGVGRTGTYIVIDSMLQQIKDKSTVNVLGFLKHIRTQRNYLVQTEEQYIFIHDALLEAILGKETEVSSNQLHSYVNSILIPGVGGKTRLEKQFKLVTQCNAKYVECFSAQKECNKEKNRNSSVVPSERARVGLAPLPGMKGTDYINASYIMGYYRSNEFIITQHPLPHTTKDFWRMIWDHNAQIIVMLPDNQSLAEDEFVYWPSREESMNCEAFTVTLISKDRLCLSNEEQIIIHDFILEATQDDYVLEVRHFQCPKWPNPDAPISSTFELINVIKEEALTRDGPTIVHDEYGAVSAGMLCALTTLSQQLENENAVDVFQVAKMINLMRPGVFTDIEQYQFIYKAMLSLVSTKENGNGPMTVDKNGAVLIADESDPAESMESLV
- assay-comment: flow cytometry, IgG1 on H929 cells
One number for each entry, in %.

HW-42 chimeric rabbit-human IgG1 LA/LA/PG (antibody, V domains shown, Fc-silenced (L234A/L235A/P329G) IgG1, lambda; Alexa Fluor 647-labeled in single-step flow cytometry; Cluster C-1) VH: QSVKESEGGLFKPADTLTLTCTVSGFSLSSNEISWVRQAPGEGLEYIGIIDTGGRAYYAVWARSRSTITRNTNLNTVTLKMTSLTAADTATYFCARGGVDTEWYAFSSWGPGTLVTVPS VL: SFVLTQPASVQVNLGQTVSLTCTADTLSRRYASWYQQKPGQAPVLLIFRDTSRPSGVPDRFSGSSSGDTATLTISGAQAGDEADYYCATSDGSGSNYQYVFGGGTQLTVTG ... 99.8

Qu. Look up and state reported antibody-bound positive cells (%) for HW-70 chimeric rabbit-human IgG1 LA/LA/PG (antibody, V domains shown, Fc-silenced (L234A/L235A/P329G) IgG1, lambda; Alexa Fluor 647-labeled in single-step flow cytometry; Cluster C-1) VH: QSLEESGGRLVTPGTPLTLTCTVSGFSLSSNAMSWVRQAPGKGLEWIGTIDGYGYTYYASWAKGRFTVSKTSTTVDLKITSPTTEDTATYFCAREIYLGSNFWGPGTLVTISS VL: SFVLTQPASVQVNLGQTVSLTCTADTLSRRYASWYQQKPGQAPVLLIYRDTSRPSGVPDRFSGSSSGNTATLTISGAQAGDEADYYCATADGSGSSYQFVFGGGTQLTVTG
Ans. 99.8
